// data source = patent US20240400584A1

# Test system: HTT
# assayOverview: Gene panel canonical junction qPCR assay, HTT CJ mRNA (Table 7)
# Format: cell-based, human
# experimentalContext: Homo sapiens, read-out: HTT CJ mRNA decrease IC50
pIC50: −log10 of the molar value.

molecule: COc1cc(-c2ccc3c(c2)COc2nc(N4CCN[C@@H](C)C4)ccc2-3)cnn1 [Compound 287]
pIC50: 6.00 to 7.00

molecule: CC(C)(C)NC1CCN(c2ccc3c(n2)OCc2cc(-c4ccnnc4)ccc2-3)C1 (stereo not drawn) [Compound 272]
pIC50: 5.00 to 6.00

molecule: C[C@]12CC[C@](C)(C[C@@H](Oc3ccc4c(n3)OCc3cc(-n5cccn5)ccc3-4)C1)N2 [Compound 228]
pIC50: 6.00 to 7.00

molecule: Fc1cc2c(cc1-c1cn[nH]c1)COc1nc(O[C@@H]3C[C@H]4CC(F)(F)[C@@H](C3)N4)ccc1-2 [Compound 236]
pIC50: > 7.00

molecule: COc1cc(-c2ccc3c(c2)COc2nc(N4CCC(NC5(C)CCC5)C4)ccc2-3)cnn1 (stereo not drawn) [Compound 285]
pIC50: > 7.00

molecule: COc1cc(-c2ccc3c(c2)COc2nc(N4CCC(C)(NC(C)C)C4)ccc2-3)cnn1 (stereo not drawn) [Compound 309]
pIC50: > 7.00

molecule: CN(c1ccc2c(n1)COc1cc(-n3cccn3)ccc1-2)C1CC(C)(C)NC(C)(C)C1 [Compound 125]
pIC50: < 5.00

molecule: c1cc2c(cc1-c1cn[nH]c1)COc1nc(N3CCC34CCNC4)ccc1-2 (stereo not drawn) [Compound 207]
pIC50: < 5.00

molecule: COc1cc(-c2cc3c(cc2F)-c2ccc(OC4CC(C)(C)NC(C)(C)C4)nc2OC3)cnn1 [Compound 244]
pIC50: 6.00 to 7.00

molecule: COc1cc(-c2ccc3c(c2)COc2nc(O[C@@H]4C[C@H]5CC[C@@H](C4)N5)ncc2-3)cnn1 [Compound 298]
pIC50: 6.00 to 7.00

molecule: CN(c1ccc2c(n1)OCc1cc(-c3cn[nH]c3)c(F)cc1-2)C1CC(C)(C)NC(C)(C)C1 [Compound 233]
pIC50: > 7.00

molecule: c1cc2c(cc1-c1cn[nH]c1)COc1nc(N3CCC34CCNCC4)ccc1-2 [Compound 221, 2,2,2-trifluoroacetate]
pIC50: < 5.00

molecule: COc1cc(-c2ccc3c(c2)COc2nc(N(C)C4CC(C)(C)NC(C)(C)C4)ncc2-3)cnn1 [Compound 276]
pIC50: 6.00 to 7.00

molecule: CN(C)[C@H]1[C@@H]2CN(c3ccc4c(n3)OCc3cc(-n5cccn5)ccc3-4)C[C@@H]21 [Compound 197]
pIC50: 5.00 to 6.00

molecule: c1cnn(-c2ccc3c(c2)COc2nc(NC4CNC4)ccc2-3)c1 [Compound 166]
pIC50: < 5.00

* * *

# Tested on: HTT
# assayOverview: RT-qPCR splicing assay, HTT AJ/CJ mRNA
# Type: cell-based, human
# experimentalContext: Homo sapiens, 24 h, decrease in canonical junction mRNA, A673 or K562 cells
pIC50: −log10 of the molar value.
outcomeMeasure: pIC50

compound: COc1cc(-c2ccc3c(c2)COc2nc(N(C)[C@H]4C[C@@H]5CC(F)(F)[C@H](C4)N5)ccc2-3)cnn1
outcomeMeasure: pIC50
measuredValue: > 7.00
--
compound: COc1cc(-c2ccc3c(c2)COc2nc(N4CCC(N5CCCC5)C4)ccc2-3)cnn1 (stereo not shown)
outcomeMeasure: pIC50
measuredValue: 6.00 to 7.00
--
compound: COc1cc(-c2ccc3c(c2)COc2nc(NC4CC5CC(F)(F)C(C4)N5)ccc2-3)cnn1 (stereo not shown)
outcomeMeasure: pIC50
measuredValue: > 7.00
--
compound: c1cc2c(cc1-c1cn[nH]c1)COc1nc(N3CCC34CCNCC4)ccc1-2 [Compound 221, 2,2,2-trifluoroacetate]
outcomeMeasure: pIC50
measuredValue: < 5.00

* * *

# Tested on: HTT
# assayOverview: Gene panel canonical junction qPCR assay, HTT CJ mRNA (Table 7)
# Format: cell-based, human
# experimentalContext: Homo sapiens, read-out: HTT CJ mRNA decrease IC50
pIC50: −log10 of the molar value.
In this section, each of the compounds is paired with its reported pIC50.

compound: CN(c1ccc2c(n1)CCOc1cc(-n3cccn3)ccc1-2)[C@@H]1C[C@H]2CC[C@@H](C1)N2
pIC50: < 5.00
//
compound: COc1cc(-c2ccc3c(c2)COc2nc(N(C)[C@H]4C[C@@H]5CC(F)(F)[C@H](C4)N5)ccc2-3)cnn1
pIC50: > 7.00
//
compound: Cc1ncc(-c2ccc3c(c2)COc2nc(O[C@@H]4C[C@H]5C[C@@H](C4)N5)ccc2-3)s1
pIC50: > 7.00
//
compound: CN(c1ccc2c(n1)CCOc1cc(-c3cn[nH]c3)ccc1-2)C1CC(C)(C)NC(C)(C)C1
pIC50: 6.00 to 7.00
//
compound: Cn1ncc(-c2ccc3c(c2)COc2nc(OC4CC5CC(F)(F)C(C4)N5)ccc2-3)cc1=O (stereo not shown)
pIC50: < 5.00
//
compound: COc1cc(-c2ccc3c(c2)COc2nc(N4CCC(N(C)CC5CC5)C4)ccc2-3)cnn1 (stereo not shown)
pIC50: 6.00 to 7.00
//
compound: COc1cc(-c2ccc3c(c2)COc2nc(N4CCNC(C(C)(C)C)C4)ccc2-3)cnn1 (stereo not shown)
pIC50: > 7.00

* * *

# System: HTT
# assayOverview: RT-qPCR splicing assay, HTT AJ/CJ mRNA
# Type: cell-based, human
# experimentalContext: decrease in canonical junction mRNA, A673 or K562 cells, 24 hours
pIC50: −log10 of the molar value.

compound: c1cnn(-c2ccc3c(c2)OCc2nc(N[C@@H]4C[C@H]5CC[C@@H](C4)N5)ccc2-3)c1 [Compound 135]
pIC50: 5.00 to 6.00
--
compound: CN(c1cnc2c(n1)OCc1cc(-c3cn[nH]c3)ccc1-2)C1CC(C)(C)NC(C)(C)C1 [Compound 142]
pIC50: 6.00 to 7.00
--
compound: CN(c1ccc2c(n1)COc1cc(-n3cccn3)ccc1-2)[C@@H]1C[C@H]2CC[C@@H](C1)N2 [Compound 124]
pIC50: 5.00 to 6.00
--
compound: CN(c1cnc2c(n1)OCc1cc(-c3cn[nH]c3)ccc1-2)C1CC(C)(C)NC(C)(C)C1 [Compound 138]
pIC50: 5.00 to 6.00
--
compound: c1cnn(-c2ccc3c(c2)OCc2nc(N[C@@H]4C[C@H]5CC[C@@H](C4)N5)ccc2-3)c1 [Compound 119]
pIC50: < 5.00
--
compound: CN(c1ccc2c(n1)COc1cc(-n3cccn3)ccc1-2)[C@@H]1C[C@H]2CC[C@@H](C1)N2 [Compound 109]
pIC50: 6.00 to 7.00

* * *

# Tested on: HTT
# assayOverview: Gene panel canonical junction qPCR assay, HTT CJ mRNA (Table 7)
# Format: cell-based, human
# experimentalContext: Homo sapiens, read-out: HTT CJ mRNA decrease IC50
pIC50: −log10 of the molar value.
In this section, each of the molecules is paired with its reported pIC50.
outcomeMeasure: pIC50

molecule: CC1(C)CC(Nc2ccc3c(n2)CCOc2cc(-c4cn[nH]c4)ccc2-3)CC(C)(C)N1
outcomeMeasure: pIC50
measuredValue: < 5.00
--
molecule: CN(c1ccc2c(n1)CCOc1cc(-c3cn[nH]c3)ccc1-2)[C@@H]1C[C@H]2CC[C@@H](C1)N2
outcomeMeasure: pIC50
measuredValue: < 5.00
--
molecule: Cc1cc(-c2ccc3c(c2)COc2nc(N4CC[C@@H](NC(C)(C)C)C4)ccc2-3)cnn1 (single isomer, unassigned)
outcomeMeasure: pIC50
measuredValue: 5.00 to 6.00
--
molecule: COc1cc(-c2ccc3c(c2)COc2nc(OC4CC5CC(F)(F)C(C4)N5)ccc2-3)cnn1 (stereo not drawn)
outcomeMeasure: pIC50
measuredValue: 6.00 to 7.00
--
molecule: CC(C)(C)NC1CCN(c2ccc3c(n2)OCc2cc(-n4nccn4)ccc2-3)C1 (stereo not drawn) [Compound 250, 2,2,2-trifluoroacetate]
outcomeMeasure: pIC50
measuredValue: 5.00 to 6.00
--
molecule: CN(c1ccc2c(n1)OCc1cc(-n3cccn3)ccc1-2)[C@H]1C[C@]2(C)CC[C@](C)(C1)N2
outcomeMeasure: pIC50
measuredValue: > 7.00
--
molecule: c1cnn(-c2ccc3c(c2)COc2nc(N4CCCC5(CNC5)C4)ccc2-3)c1
outcomeMeasure: pIC50
measuredValue: < 5.00
--
molecule: CC(C)(C)NC1CCN(c2ccc3c(n2)OCc2cc(-c4cnnc(OC5CC5)c4)ccc2-3)C1 (stereo not drawn)
outcomeMeasure: pIC50
measuredValue: 5.00 to 6.00
--
molecule: COc1cc(-c2ccc3c(c2)COc2nc(N4CCC(NCC5CC5)C4)ccc2-3)cnn1 (stereo not drawn)
outcomeMeasure: pIC50
measuredValue: 6.00 to 7.00
--
molecule: O=c1cc(-c2ccc3c(c2)COc2nc(OC4CC5CC(F)(F)C(C4)N5)ccc2-3)cc[nH]1 (stereo not drawn)
outcomeMeasure: pIC50
measuredValue: < 5.00
--
molecule: CCN(c1ccc2c(n1)OCc1cc(-n3cccn3)ccc1-2)[C@@H]1C[C@H]2CC[C@@H](C1)N2
outcomeMeasure: pIC50
measuredValue: 6.00 to 7.00
--
molecule: CN1CCC12CCN(c1ccc3c(n1)OCc1cc(-c4cn[nH]c4)ccc1-3)C2 (stereo not drawn)
outcomeMeasure: pIC50
measuredValue: 6.00 to 7.00
--
molecule: CN(c1ccc2c(n1)OCc1cc(-c3ccc(=O)[nH]c3)ccc1-2)[C@@H]1C[C@H]2CC[C@@H](C1)N2
outcomeMeasure: pIC50
measuredValue: 5.00 to 6.00
--
molecule: COc1cc(-c2ccc3c(c2)COc2nc(N4CC[C@H](NC(C)(C)C)C4)ccc2-3)cnn1
outcomeMeasure: pIC50
measuredValue: > 7.00
--
molecule: c1cc2c(cc1-c1cn[nH]c1)COc1nc(N[C@@H]3C[C@H]4CC[C@@H](C3)N4)cnc1-2
outcomeMeasure: pIC50
measuredValue: 6.00 to 7.00
--
molecule: CN(c1ccc2c(c1)OCc1cc(-n3cccn3)ccc1-2)[C@@H]1C[C@H]2CC[C@@H](C1)N2
outcomeMeasure: pIC50
measuredValue: < 5.00
--
molecule: c1cnn(-c2ccc3c(c2)COc2nc(NC4CCNCC4)ccc2-3)c1
outcomeMeasure: pIC50
measuredValue: < 5.00
--
molecule: CN(c1ccc2c(n1)OCc1cc(-c3ccn(C)c(=O)c3)ccc1-2)[C@@H]1C[C@H]2CC[C@@H](C1)N2
outcomeMeasure: pIC50
measuredValue: > 7.00
--
molecule: COc1cc(-c2ccc3c(c2)COc2nc(N4CCC(NC(C)(C)C)C4)ccc2-3)cnn1 (stereo not drawn)
outcomeMeasure: pIC50
measuredValue: > 7.00
--
molecule: [2H]C([2H])([2H])N(c1ccc2c(n1)OCc1cc(-n3cccn3)ccc1-2)[C@@H]1C[C@H]2CC[C@@H](C1)N2
outcomeMeasure: pIC50
measuredValue: 6.00 to 7.00
--
molecule: c1cc2c(cc1-c1cn[nH]c1)OCCc1nc(N[C@@H]3C[C@H]4CC[C@@H](C3)N4)ccc1-2
outcomeMeasure: pIC50
measuredValue: < 5.00
--
molecule: CN(c1ccc2c(n1)OCc1cc(-c3cnc(=O)[nH]c3)ccc1-2)[C@@H]1C[C@H]2CC[C@@H](C1)N2
outcomeMeasure: pIC50
measuredValue: < 5.00
--
molecule: CC1(NC2CCN(c3ccc4c(n3)OCc3cc(-n5nccn5)ccc3-4)C2)CC1 (stereo not drawn)
outcomeMeasure: pIC50
measuredValue: 6.00 to 7.00
--
molecule: CC1(C)CC(Oc2ccc3c(n2)OCc2cc(-c4cn[nH]c4)c(F)cc2-3)CC(C)(C)N1
outcomeMeasure: pIC50
measuredValue: > 7.00
--
molecule: c1cnn(-c2ccc3c(c2)COc2nc(N[C@@H]4C[C@H]5CCC[C@@H](C4)N5)ccc2-3)c1
outcomeMeasure: pIC50
measuredValue: > 7.00
--
molecule: CC(C)(C)NC1CCN(c2ccc3c(n2)OCc2cc(-c4cnnc(C5CC5)c4)ccc2-3)C1 (stereo not drawn)
outcomeMeasure: pIC50
measuredValue: < 5.00
--
molecule: CC1(C)CC(Oc2ccc3c(n2)OCc2cc(-n4cccn4)ccc2-3)CCN1 (stereo not drawn)
outcomeMeasure: pIC50
measuredValue: 5.00 to 6.00
--
molecule: CN(c1ccc2c(n1)OCc1cc(-n3nccn3)ccc1-2)[C@@H]1C[C@H]2CC[C@@H](C1)N2
outcomeMeasure: pIC50
measuredValue: > 7.00
--
molecule: c1cnn(-c2ccc3c(c2)OCCc2nc(N[C@@H]4C[C@H]5CC[C@@H](C4)N5)ccc2-3)c1
outcomeMeasure: pIC50
measuredValue: < 5.00
--
molecule: Fc1cc2c(cc1-c1cn[nH]c1)COc1nc(O[C@@H]3C[C@H]4CC[C@@H](C3)N4)ccc1-2
outcomeMeasure: pIC50
measuredValue: > 7.00
